biological target: human CXCR4 (human, UniProt P61073 1-352); assay: cell-based or functional assay
Sequence (P61073 whole entry): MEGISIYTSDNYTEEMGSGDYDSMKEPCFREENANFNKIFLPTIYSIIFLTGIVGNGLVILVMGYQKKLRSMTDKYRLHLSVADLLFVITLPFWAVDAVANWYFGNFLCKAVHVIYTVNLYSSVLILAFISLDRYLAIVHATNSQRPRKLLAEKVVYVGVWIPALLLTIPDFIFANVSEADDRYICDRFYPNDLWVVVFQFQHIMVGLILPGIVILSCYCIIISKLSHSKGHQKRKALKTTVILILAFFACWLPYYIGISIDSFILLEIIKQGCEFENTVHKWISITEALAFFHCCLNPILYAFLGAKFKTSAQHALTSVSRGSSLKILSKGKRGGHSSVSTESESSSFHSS
[ ]: non-standard residue; d: D form. 2Nal = N[C@@H](Cc1ccc2ccccc2c1)C(=O)O; Cit = NC(=O)NCCC[C@H](N)C(=O)O
measured_endpoint: IC50 (nM) Ca2+ assay (method 1)
A number alone suffices; assume nM.

Input line: Could you tell me which IC50 (nM) Ca2+ assay (method 1) is on file for cyclo(YR[Cit]FRFPRR[2Nal]VY[Cit]K[dP]P) (SMILES CC(C)[C@@H]1NC(=O)[C@H](Cc2ccc3ccccc3c2)NC(=O)[C@H](CCCNC(=N)N)NC(=O)[C@H](CCCNC(=N)N)NC(=O)[C@@H]2CCCN2C(=O)[C@H](Cc2ccccc2)NC(=O)[C@H](CCCNC(=N)N)NC(=O)[C@H](Cc2ccccc2)NC(=O)[C@H](CCCNC(N)=O)NC(=O)[C@H](CCCNC(=N)N)NC(=O)[C@H](Cc2ccc(O)cc2)NC(=O)[C@@H]2CCCN2C(=O)[C@H]2CCCN2C(=O)[C@H](CCCCN)NC(=O)[C@H](CCCNC(N)=O)NC(=O)[C@H](Cc2ccc(O)cc2)NC1=O) [Example 24] ?
Output line: 850
